- procedure_details: protein stability index of a GFP-peptide fusion (GPS, HEK-293T) (PSI 1-6); higher = more stable;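 further: 24-mer peptide tiles fused after GFP, lentivirally expressed, FACS-sorted into six equal bins by GFP/DsRed ratio, decoded by Illumina sequencing, PSI is the read-weighted mean bin number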
- conditions: treatment: DMSO; c terminus: a fixed tail appended
So basically: protein stability index at 3 or higher? That is rule met. Lower than 3? That is rule not met.

>  <sequence_code>
PGKDYDADRQCQLTFGPDSRHCPQ [ADAMTS4]

>  <class_name>
rule met

$$$$
>  <sequence_code>
LKFHKLVNVTIHFRLKTINLQSLI [MCOLN1]

>  <class_name>
rule met

$$$$
>  <sequence_code>
VLDLEARGYIKPHVDSIKFCGATI [ALKBH7]

>  <class_name>
rule not met

$$$$
>  <sequence_code>
TVFCLVVIFALCWFPLHLSRILKK [EDNRA]

>  <class_name>
rule not met

$$$$
>  <sequence_code>
QRDLSPTAEDAELSDFEECEETGE [FCHSD1]

>  <class_name>
rule met

$$$$
>  <sequence_code>
KDIQPYMRRMVATWMLEVCEEQKC [CCND2]

>  <class_name>
rule not met

$$$$
>  <sequence_code>
RYLADLLPSVFGSLRDSGYFYDPI [RSPH3]

>  <class_name>
rule not met

$$$$
>  <sequence_code>
LVTTGANVNETDDWGRTALHYAAA [ANKRD44]

>  <class_name>
rule met

$$$$
>  <sequence_code>
TGGLGGERERQPCGDGNTETHRAP [SOAT2]

>  <class_name>
rule met

$$$$
>  <sequence_code>
YEAQDGRGPDNALLEATGGAAGRS [KCTD10]

>  <class_name>
rule met

$$$$
>  <sequence_code>
ERVYSLQHLDPQGAQELLEFTIRD [INTS4]

>  <class_name>
rule met

$$$$
>  <sequence_code>
LKSAKDLPPDALIIEYRGKFMLRE [KMT2E]

>  <class_name>
rule not met

$$$$
>  <sequence_code>
NILIYETPRGPDPALLEATGGAAG [KCTD13]

>  <class_name>
rule met

$$$$
>  <sequence_code>
RAWSQCGGGGLRAWSQRSAAGRVC [CPOX]

>  <class_name>
rule not met

$$$$
>  <sequence_code>
SVKSKIGELEDESLNRACHQQNKI [CEP70]

>  <class_name>
rule met

$$$$
>  <sequence_code>
FEFRPELVNDDDEEADDTRYTQGT [ZC3H15]

>  <class_name>
rule met

$$$$
>  <sequence_code>
LKVGGILVMPLEEKLTKITRTGPS [PCMTD2]

>  <class_name>
rule not met

$$$$
>  <sequence_code>
VYMFKNGSGDSGDSSEEESHRVVL [LYSMD4]

>  <class_name>
rule met

$$$$
>  <sequence_code>
KGRTIYLEDIYVMPEYRGQGIGSK [SAT2]

>  <class_name>
rule not met

$$$$
>  <sequence_code>
RSELVEGCGWRCPEHGDRVAELFC [TRIM14]

>  <class_name>
rule not met

$$$$
>  <sequence_code>
TAGQERFRALAPMYYRGSAAAIIV [RAB22A]

>  <class_name>
rule not met

$$$$
>  <sequence_code>
ALVQEKIQKRNQRQSGDRRQLPPP [WAS]

>  <class_name>
rule met

$$$$
>  <sequence_code>
LPHLVALTEQYTVTGLMEATQMMV [RHOBTB2]

>  <class_name>
rule not met

$$$$
>  <sequence_code>
MRYLRNHCLDQVGLFRKSGVKSRI [DLC1]

>  <class_name>
rule not met

$$$$
>  <sequence_code>
LGPSLEDLFDLCDRTFTLKTVLMI [CSNK1G1]

>  <class_name>
rule not met

$$$$
>  <sequence_code>
LQLLREENRALQQLLEQKQAYWAQ [CBY2]

>  <class_name>
rule not met

$$$$
>  <sequence_code>
HSEGRVEVYYDGQWGTVCDDDFSI [LOXL2]

>  <class_name>
rule met

$$$$
>  <sequence_code>
RDIRCSEDEKLCDPNTRPVGEKNC [ADAMTSL2]

>  <class_name>
rule met

$$$$
>  <sequence_code>
AGGNSSSSAAMQSSCSSTSGGGGG [CCDC6]

>  <class_name>
rule met

$$$$
>  <sequence_code>
SQYQCENGVSGPSQDLLPPPNPYP [TBX5]

>  <class_name>
rule met

$$$$
>  <sequence_code>
VGGATLAQTTSEAAMEGATLDQTT [HDAC6]

>  <class_name>
rule met

$$$$
>  <sequence_code>
EHGYENMNHFTVNLNREEKIIREI [TRIM55]

>  <class_name>
rule met

$$$$
>  <sequence_code>
DSVLKGMQAASSKMVSAEISENRK [SDE2]

>  <class_name>
rule met

$$$$
>  <sequence_code>
RAVRQSVTSFPDADAFHHQVHDDD [EMD]

>  <class_name>
rule met

$$$$
>  <sequence_code>
LIQNEYRNGGSLADAISENYRIMS [WEE1]

>  <class_name>
rule not met

$$$$
